pIC50: −log10 of the molar value.
pIC50 for Cyclin-dependent kinase 1 (Homo sapiens, UniProt P06493), merged from several publications.
RECORDED_METRIC: pIC50

Record excerpt, results attached:
INSERT INTO measurements (compound, reported) VALUES
  ('O=C(Cc1ccc(-c2ccccc2)cc1)Nc1n[nH]c2ccc(N3CCCS3(=O)=O)cc12', 7.38),
  ('CC(C)n1cnc2c(Nc3cccc(Cl)c3)nc(N[C@@H](CO)c3ccccc3)nc21', 6.40),
  ('COc1ccc(Cc2nnc(N3CCN(C(=S)Nc4cccc(Cl)c4)CC3)c3ccccc23)cc1', 7.37),
  ('FC(F)(F)c1cnc(Nc2ccc3nc[nH]c3c2)nc1Oc1ccc(Cl)cc1', 6.60),
  ('COc1ccc(CNc2nc(NC3(CO)CCCC3)nc3c2ncn3C(C)C)cc1', 6.35),
  ('COCCN1CCN(Cc2ccc(-c3n[nH]c4c3C(=O)c3c(NC(=O)NN5CCOCC5)cccc3-4)cc2)CC1', 8.70),
  ('CNC(=O)Nc1ccc(-c2cc(-c3ccnc(Nc4ccc(Cl)c(S(=O)(=O)NC)c4)n3)ccn2)cc1', 6.49),
  ('O=C(c1ccccc1)N1CCN(c2nnc(Cc3ccccc3)c3ccccc23)CC1', 7.20),
  ('CN(C)C(=O)c1cccc(-c2cnc(N)c(-c3nc4ccccc4[nH]3)c2)c1', 6.00),
  ('CC(C)n1cnc2c(Nc3cccc(Cl)c3)nc(NC3c4ccccc4C[C@H]3O)nc21 (stereo partly specified)', 5.30);

A. O=C(NCCCO)c1cc(Cl)ccc1O
B. COc1cccc(-c2cc(Nc3ccc(S(N)(=O)=O)cc3)[nH]n2)c1
C. Cc1ncc(-c2nc(Nc3ccc(C(=O)N4CCN(C)CC4)cc3)ncc2F)n1C(C)C
D. Nc1nc(-c2cc(N3C[C@H](O)[C@@H](O)C3)ccc2O)cc(C2CCCCCC2)n1
Ascending by pIC50, please. List the labels in the requested order.
A, B, C, D

P. N#Cc1cnc(Nc2ccc(CCO)cc2)nc1-c1nc2ccccc2s1
Q. Nc1ncccc1-c1nc2ccccc2[nH]1
R. Cc1cccc(Nc2ncc(C(F)(F)F)c(Nc3ccc4nc[nH]c4c3)n2)c1
Returns the items ordered by pIC50, from maximum to minimum. List the labels in the requested order.
R, P, Q
(R: 7.82, P: 6.25, Q: 5.00)

###

pIC50: −log10 of the molar value.
pIC50 for UniProtKB P06493, merged from several publications.
RECORDED_METRIC: pIC50

INSERT INTO measurements (compound, recorded_metric, reported) VALUES
  ('CCN1CCC(Oc2cnc(Nc3cc(-c4cc(F)c5nc(C)n(C(C)C)c5c4)ncn3)cn2)CC1', 'pIC50', 6.64),
  ('CC(C)n1cnc2c(Nc3cccc(Cl)c3)nc(N[C@H](CO)C(C)(C)C)nc21', 'pIC50', 5.64);

P. CC(C)[C@H](CO)N(Cc1cccc(F)c1)c1nc(Nc2cccc(Cl)c2)c2ncn(C(C)C)c2n1
Q. CNC(=O)Nc1ccc(-c2cc(-c3ccnc(Nc4ccc(C)c(S(=O)(=O)N(C)C)c4)n3)ccn2)cc1
R. COC(=O)c1cccc2[nH]c(-c3n[nH]c4ncc(-c5cncc6ccccc56)cc34)nc12
S. CC(C)c1cccc2c1C(=NNc1ccc(S(N)(=O)=O)cc1)C(=O)N2
Returns the items ordered by pIC50, from maximum to minimum. List the labels in the requested order.
S, Q, P, R
(S: 7.43, Q: 5.92, P: 5.30, R: 5.00)

1. Clc1cnc(Nc2ccc(CCN3CCCC3)cc2)nc1-c1ccc2cc[nH]c2c1
2. CN1CCN(c2cc(-c3cc(N4C[C@H](O)[C@@H](O)C4)ccc3O)nc(N)n2)CC1
3. O=C(Cc1ccc(Cl)cc1)Nc1n[nH]c2ccc(N3CCCS3(=O)=O)cc12
4. Nc1nccc(-c2cc(N3CCC(O)C3)ccc2O)n1 (stereo not given)
Ascending by pIC50, please. List the labels in the requested order.
4, 1, 2, 3

I. CC(C)n1cnc2c(NCCCc3ccccc3)nc(N3CCCCC3CCO)nc21 (stereo not given)
II. CC(C)c1cnn2c(NCc3ccccc3)cc(NCCCCCCN)nc12
III. N#Cc1cnc(Nc2ccc(CCC(=O)N3CCOCC3)cc2)nc1-c1ccccc1
IV. COc1cccc(-c2cn(-c3ccccc3)c3ncnc(N)c23)c1
V. Cn1cc(Nc2ncc3cnn(C4CCC(C)(C)CC4)c3n2)cc1C(N)=O
Returns the items ordered by pIC50, from maximum to minimum. List the labels in the requested order.
V, I, III, II, IV
(V: 7.62, I: 5.89, III: 5.68, II: 5.09, IV: 4.37)

1. CC(O)c1cc2cnc(Nc3cc(C(=O)N4CCN(C)CC4)n(C)c3)nc2n1C1CCCC1 (stereo not given)
2. N#Cc1cnc(Nc2ccc(CCO)cc2)nc1-c1cccs1
3. C[C@H](N[C@@H](C)COc1ccccc1)[C@@H](O)c1ccc(O)cc1
Ascending by pIC50, please. List the labels in the requested order.
3, 1, 2
(3: 5.54, 1: 5.96, 2: 6.33)

P. CN1CCN(C(=O)c2cc(Nc3ncc4cc(CO)n(C5CCCC5)c4n3)cn2C)CC1
Q. COc1cc(Nc2ncc(C#N)c(-c3ccccc3)n2)ccc1CN1CCCC1
R. CC(C)[C@H](CO)N(CC1CCCCC1)c1nc(Nc2cccc(Cl)c2)c2ncn(C(C)C)c2n1
S. CC(O)CNc1nc(NCc2ccc(-c3ccccn3)cc2)c2[nH]nc(C(C)C)c2n1 (stereo not given)
Ascending by pIC50, please. List the labels in the requested order.
Q, R, P, S

A. CC(C)n1cnc2c(Nc3cccc(Cl)c3)nc(NCCCO)nc21
B. N#Cc1cnc(Nc2cccc(CN3CCOCC3)c2)nc1-c1ccccc1
For the two items A and B , which reports the higher pIC50 value? Response format: the label of the selected entry.
A
(A: 6.05, B: 5.70)

1. CN(C)CCc1ccc(Nc2ncc(Cl)c(-c3ccc(C(C)(C)N)cc3)n2)cc1
2. COc1cccc(Nc2ncc(C#N)c(-c3ccccc3)n2)c1
For the two items 1 and 2 , which reports the higher pIC50 value? Response format: the label of the selected entry.
1
(1: 5.94, 2: 5.38)

A. CNC(=O)Nc1ccc(-c2cc(-c3ccnc(Nc4ccc(C)c(S(=O)(=O)NC)c4)n3)ccn2)cc1
B. N#Cc1cnc(Nc2ccc(CCN3CCCC3)cc2)nc1-c1ccccc1
For the two items A and B , which reports the higher pIC50 value? Response format: the label of the selected entry.
A
(A: 6.64, B: 5.19)

###

IC50 for Cyclin-dependent kinase 1 (Homo sapiens, UniProt P06493), merged from several publications.
RECORDED_METRIC: IC50 (µM)

P. CS(=O)(=O)N1CCC2(CC1)N=C(c1ccc(Br)cc1)C(=O)N2
Q. Cc1ncc(-c2nc(Nc3ccc(C(=O)N4CC[C@H](N(C)C)C4)cc3)ncc2F)n1C(C)C
R. CC(C)[C@H](CO)Nc1nc(NCc2cccc(I)c2)c2ncn(C(C)C)c2n1
S. COc1cccc(Nc2nc(NCCO)nc3c2ncn3C(C)C)c1
Put the compounds in ascending order of IC50. List the labels in the requested order.
Q, R, S, P
(Q: 0.011 µM, R: 0.17 µM, S: 0.4 µM, P: 29.3 µM)

###

IC50 for Cyclin-dependent kinase 1 (Homo sapiens, UniProt P06493), merged from several publications.
RECORDED_METRIC: IC50 (µM)

Record excerpt, results attached:
INSERT INTO results (molecule, unit_tag, reported) VALUES
  ('CC(C)COc1nc(Nc2ccc3[nH]cnc3c2)ncc1C(F)(F)F', 'µM', 0.002),
  ('CC(C)n1cnc2c(Nc3cccc(Br)c3)nc(NCCO)nc21', 'µM', 0.27),
  ('FC(F)(F)c1cnc(Nc2ccc3[nH]cnc3c2)nc1OC1CCCCC1', 'µM', 0.043),
  ('Cc1nc2c(F)cc(-c3cc(Nc4cnc(CN5CCN(C6CCCC6)CC5)cn4)ncn3)cc2n1C(C)C', 'µM', 0.101),
  ('O=C(Cc1ccc(-c2ccncc2)cc1)Nc1n[nH]c2ccc(N3CCCS3(=O)=O)cc12', 'µM', 0.06),
  ('NC(=O)c1ccc2c(c1)C(=NNc1ccc(S(N)(=O)=O)cc1)C(=O)N2', 'µM', 0.0028);

A. CC(C)n1cnc2c(Nc3ccc(Cl)cc3)nc(N3CCCCC3CCO)nc21 (stereo unspecified)
B. COc1ccc(-n2cnc3ccc(-c4nnc(SCc5cccc(C#N)c5)o4)cc32)cc1
When the recorded IC50 values are compared, which is smaller: that of A or that of B ? Response format: the label of the selected entry.
A

###

IC50 for Cyclin-dependent kinase 1 (Homo sapiens, UniProt P06493), merged from several publications.

INSERT INTO results (smiles_input, recorded_metric, reported) VALUES
  ('O=C(Nc1ccc(Cl)cc1)c1ccccc1NCc1ccncc1', 'IC50', '> 10 µM');

Form field: IC50 recorded for `Cc1n[nH]c2ccc(-c3cc(N[C@@H](CO)c4ccccc4)cnc3-c3ccc(F)cc3O)cc12` with Cyclin-dependent kinase 1 (Homo sapiens, UniProt P06493) (enter value)
> 1 µM

Form field: IC50 recorded for `COc1cc(C(=O)Nc2ccc(NC(=O)c3ccccc3)cc2)ccc1O` with Cyclin-dependent kinase 1 (Homo sapiens, UniProt P06493) (enter value)
> 30 µM
